Molecular target: T1, EsCas13d, nuclease-dead (Eubacterium siraeum, UniProt B0MS50, R295A;H300A;R849A;H854A)
T1 sequence: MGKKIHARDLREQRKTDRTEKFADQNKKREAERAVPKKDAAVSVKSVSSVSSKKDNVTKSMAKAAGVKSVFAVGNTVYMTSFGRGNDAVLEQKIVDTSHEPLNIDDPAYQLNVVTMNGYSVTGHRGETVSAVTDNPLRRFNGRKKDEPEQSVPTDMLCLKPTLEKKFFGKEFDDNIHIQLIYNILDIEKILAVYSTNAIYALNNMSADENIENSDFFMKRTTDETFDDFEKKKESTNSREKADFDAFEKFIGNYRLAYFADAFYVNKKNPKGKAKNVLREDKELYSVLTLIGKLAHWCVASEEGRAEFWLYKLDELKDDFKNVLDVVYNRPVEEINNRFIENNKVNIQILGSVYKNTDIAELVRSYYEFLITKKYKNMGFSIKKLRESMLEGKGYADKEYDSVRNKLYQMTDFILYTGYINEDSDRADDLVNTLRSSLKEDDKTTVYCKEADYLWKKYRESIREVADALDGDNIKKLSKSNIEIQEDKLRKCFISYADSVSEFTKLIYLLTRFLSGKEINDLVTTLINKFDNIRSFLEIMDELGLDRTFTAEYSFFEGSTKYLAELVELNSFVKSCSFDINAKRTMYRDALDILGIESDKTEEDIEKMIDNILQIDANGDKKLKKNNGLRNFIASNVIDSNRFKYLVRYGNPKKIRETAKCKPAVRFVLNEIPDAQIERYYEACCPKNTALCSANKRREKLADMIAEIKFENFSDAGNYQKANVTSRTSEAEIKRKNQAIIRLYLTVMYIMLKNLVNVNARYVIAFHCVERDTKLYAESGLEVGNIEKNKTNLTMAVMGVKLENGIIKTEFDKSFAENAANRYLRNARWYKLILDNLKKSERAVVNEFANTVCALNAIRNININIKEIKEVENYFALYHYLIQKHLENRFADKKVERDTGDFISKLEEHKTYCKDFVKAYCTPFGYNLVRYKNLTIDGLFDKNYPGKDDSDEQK
Experiment: crRNA (strand 1, pre-loaded); Mg2+; 40 mM Tris-HCl pH 7.5, 150 mM NaCl, 6 mM MgCl2, 1 mM DTT, 0.1% Tween-20, 0.2 mg/ml BSA; 25 C; 10 min per concentration, then washed
Settings: tags: His6-TwinStrep-SUMO cleaved; N-terminal SNAP kept (SNAP-Surface 488); label: 3' end held by stalled T7 RNA polymerase
Parameter pKd: see the listing below.
Interpret pKd as the negative base-10 log of the concentration measured in mol/L.

Example entries begin here.
| binder | result number |
| --- | --- |
| target 1 insG 3' of 16,insG 3' of 8 (mixed) RNA 1: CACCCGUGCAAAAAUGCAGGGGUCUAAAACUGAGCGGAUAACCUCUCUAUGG RNA 2: GGGAAUGGAUCCACAUCUACGAAUUCGUACCAUAGAGGAGGUUAUGCCGCUCACCGAGAUCGGAAGAGCACACGU | 7.64 |
| target 2 MT 5'PFS CUG 3'PFS UUC (mixed) RNA 1: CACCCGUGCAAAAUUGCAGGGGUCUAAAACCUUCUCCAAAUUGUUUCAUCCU RNA 2: GGGAAUGGAUCCACAUCUACGAAUUCCUGAGGAUGAAACAAUUUGGAGAAGUUCAGAUCGGAAGAGCACACGU | 8.14 |
| target 1 insU 3' of 20,insG 3' of 11 (mixed) RNA 1: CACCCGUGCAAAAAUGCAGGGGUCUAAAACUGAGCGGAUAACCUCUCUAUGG RNA 2: GGGAAUGGAUCCACAUCUACGAAUUCGUACCAUUAGAGAGGUGUAUCCGCUCACCGAGAUCGGAAGAGCACACGU | 7.29 |

Kindly consider the entry below.
Req: # lookup: pKd of target 1 insU 3' of 20,insA 3' of 19 (mixed) RNA 1: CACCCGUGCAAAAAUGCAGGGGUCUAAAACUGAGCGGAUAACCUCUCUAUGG RNA 2: GGGAAUGGAUCCACAUCUACGAAUUCGUACCAUUAAGAGAGGUUAUCCGCUCACCGAGAUCGGAAGAGCACACGU
Resp: 7.68
